TARGET OF ASSAY: ubiquitin (D77) (UniProt P0CG48 1-76, D77)
ASSAY REMARKS: NMR titration

{"BINDER": "gp78CUE domain (453–504) (domain or fragment, human, UniProt Q9UKV5 453-504, looked up) SNSQLNAMAHQIQEMFPQVPYHLVLQDLQLTRSVEITTDNILEGRIQVPFPT", "Kd (µM)": 13.6}
